B1: TPR t1 (parent)
chain: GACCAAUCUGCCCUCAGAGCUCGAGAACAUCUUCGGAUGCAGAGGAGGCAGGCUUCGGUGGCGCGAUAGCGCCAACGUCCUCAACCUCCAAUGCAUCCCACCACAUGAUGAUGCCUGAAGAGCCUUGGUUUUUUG

Variants of: B1
Test: polymerase ribozyme fitness, log enrichment relative to wild type (log ratio); higher = more active; in vitro selection for triplet polymerase activity
Outcome measure: polymerase ribozyme fitness (log ratio)
Respond using a number only.

Mutations: C79U C98A
polymerase ribozyme fitness (log ratio): -4.92

Query :: // polymerase ribozyme fitness (log ratio) lookup, key: A75C G77C
Result :: -1.58

Query :: // polymerase ribozyme fitness (log ratio) lookup, key: U21A C53G U54G U87A U133A
Result :: -3.43

Query :: // polymerase ribozyme fitness (log ratio) lookup, key: C8A C31A
Result :: -5.54

Query :: // polymerase ribozyme fitness (log ratio) lookup, key: C34A C114G
Result :: -5.41

Query :: // polymerase ribozyme fitness (log ratio) lookup, key: C40U G42A C56A C76G G93U C114G
Result :: -4.34

Query :: // polymerase ribozyme fitness (log ratio) lookup, key: A27U A83U G128C
Result :: -6.05

Query :: // polymerase ribozyme fitness (log ratio) lookup, key: G39U G61A C72G A103U
Result :: -5.55

Query :: // polymerase ribozyme fitness (log ratio) lookup, key: U54G C56G C72A G93A C124A U125A
Result :: -2.75

Query :: // polymerase ribozyme fitness (log ratio) lookup, key: C97U U112A
Result :: 0.716

Query :: // polymerase ribozyme fitness (log ratio) lookup, key: C72G C85U C86U
Result :: -2.99

Query :: // polymerase ribozyme fitness (log ratio) lookup, key: G47A C85U C101U
Result :: -2.15

Query :: // polymerase ribozyme fitness (log ratio) lookup, key: C13A A90U
Result :: -3.48

Query :: // polymerase ribozyme fitness (log ratio) lookup, key: G52A G120A
Result :: 0.47

Query :: // polymerase ribozyme fitness (log ratio) lookup, key: A16G G42U C102U C124G
Result :: -3.81

Query :: // polymerase ribozyme fitness (log ratio) lookup, key: U9A U78C C86A A121C
Result :: 2.18

Query :: // polymerase ribozyme fitness (log ratio) lookup, key: A27U C114A
Result :: -3.53

Query :: // polymerase ribozyme fitness (log ratio) lookup, key: G93C C124U U125C
Result :: -1.05

Query :: // polymerase ribozyme fitness (log ratio) lookup, key: C8A A91G C98U
Result :: -1.37

Query :: // polymerase ribozyme fitness (log ratio) lookup, key: C13U C20U G44U G47U
Result :: -3.8

Query :: // polymerase ribozyme fitness (log ratio) lookup, key: A37U C86G C88U C104U U106A G113A C124G G127A
Result :: -4.82

Query :: // polymerase ribozyme fitness (log ratio) lookup, key: A100G G120U
Result :: -3.45

Query :: // polymerase ribozyme fitness (log ratio) lookup, key: C12A G52A C73U A91G
Result :: -2.04

Query :: // polymerase ribozyme fitness (log ratio) lookup, key: A2U C13A
Result :: -3.76

Query :: // polymerase ribozyme fitness (log ratio) lookup, key: C104A G120C G127A U129A
Result :: -2.25

Query :: // polymerase ribozyme fitness (log ratio) lookup, key: G17A G63C U109A C115A
Result :: -6.25

Query :: // polymerase ribozyme fitness (log ratio) lookup, key: C72A C86G C89U
Result :: -1.07

Query :: // polymerase ribozyme fitness (log ratio) lookup, key: C73A U109C
Result :: -2.34
